- Tested on: Fibrinogen (Alexa647-labelled)
- assay text: fibrinogen binders on compound microarrays, profiling panel, artefact control for SMM control-protein annotation, biochemical, small-molecule microarray, 635/667 nm fluorescence (AID 1131);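 note: z-score merges 667 nm fluorescence with per-spot signal-to-noise over triplicate slides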
- particulars: fibrinogen-A647 binding fluorescence, higher = more signal
A collection of compounds and their measured composite z-score
// response body must contain only the number

# example entries with known answers
{"columns": ["compound", "system", "composite z-score"],
 "data": [
  ["COc1cc2c(cc1O)C(C)N(Cc1ccc([N+](=O)[O-])o1)CC2 (stereo not given)", "Fibrinogen (Alexa647-labelled)", 0.824],
  ["NC(N)=NCCCn1cc(CNC(=O)[C@@H](N)Cc2ccccc2)nn1", "Fibrinogen (Alexa647-labelled)", -0.845],
  ["CC(C)Cc1ccc(CN2CC[C@@H](NC(=O)Nc3ccccc3)C2)cc1", "Fibrinogen (Alexa647-labelled)", 0.494],
  ["COC(=O)c1ccc([C@H](NC(=O)c2ccco2)[C@]2(C)C[C@H]2C2CCCCC2)cc1", "Fibrinogen (Alexa647-labelled)", -0.293],
  ["CC=CC(O)C1C=CC2C(=O)N(c3ccccc3)C(=O)C2N1Nc1ccccc1F (stereo not given)", "Fibrinogen (Alexa647-labelled)", -1.06]
]}

Exam item: # input compound: `COC(=O)CCCCCCC(=O)Nc1ccc(NC(=O)CCCC[P+](c2ccccc2)(c2ccccc2)c2ccccc2)cc1` ; wanted: its composite z-score
Marked response: -0.722

Exam item: Request: `CN(C)C(=O)[C@]1(CCS(=O)(=O)c2ccccc2)N=C(c2ccc(OCCCO)cc2)O[C@@H]1c1ccccc1N=[N+]=[N-]`
Marked response: 1.02

Exam item: // same read-out, input: `COc1ccc([Si](C)(C)[C@@H]2[C@@H](CC(=O)N(CCO)Cc3ccccc3)O[C@]3(C(=O)N(c4ccccc4)c4ccccc43)[C@H]2C)cc1`
Marked response: 0.874

Exam item: What do you get for `O=c1n(-c2ccccc2)c(=O)n2n1CC(COc1ccccc1)=C([C@H](O)CCc1ccccc1)[C@@H]2CO` ?
Marked response: 0.783

Exam item: Next entry: `COc1ccc([Si](C)(C)[C@@H]2[C@@H](CC(=O)N3Cc4ccccc4C[C@H]3CO)O[C@]3(C(=O)N(Cc4cccc(N5C(=O)c6cccc7cccc5c67)c4)c4ccccc43)[C@H]2C)cc1`
Marked response: 0.883
